Entry source: the Immune Epitope Database (IEDB)

target: HLA-B*15:03; assay: IEDB peptide-MHC binding, purified MHC/competitive/radioactivity; filed as Kd, often an IC50 or EC50 that approximates it; bounds were set here for any values at or beyond the usual limits of such assays; settings: source organism: Vaccinia virus WR
Can you tell me Kd for the items I'm about to list?
Report only the number, with the unit nM understood.

Challenge: Entry LKYYYSNSY : reported Kd = ?
Response given: 0.242

Challenge: Entry EKTQYTNDF : reported Kd = ?
Response given: 832

Challenge: Entry ITNTEINSF : reported Kd = ?
Response given: 421

Challenge: Entry IKVTAASPM : reported Kd = ?
Response given: 2.76

Challenge: Entry ESVKFGNSI : reported Kd = ?
Response given: 102

Challenge: Entry FLSNCEKQF : reported Kd = ?
Response given: 21

Challenge: Entry KKMQSYNSV : reported Kd = ?
Response given: 2.81

Challenge: Entry EQKLRPNSF : reported Kd = ?
Response given: 1100

Challenge: Entry FSILFSNNF : reported Kd = ?
Response given: 29.7

Challenge: Entry VQHNIKHSF : reported Kd = ?
Response given: 0.203

Challenge: Entry KLVIFPSHL : reported Kd = ?
Response given: 1170

Challenge: Entry IIIPLSVSI : reported Kd = ?
Response given: 1230

Challenge: Entry SNINDFNIF : reported Kd = ?
Response given: 501
